# Assay System: T1, BoNT/C1 holotoxin (Clostridium botulinum, UniProt P18640 2-1291)
# T1 sequence: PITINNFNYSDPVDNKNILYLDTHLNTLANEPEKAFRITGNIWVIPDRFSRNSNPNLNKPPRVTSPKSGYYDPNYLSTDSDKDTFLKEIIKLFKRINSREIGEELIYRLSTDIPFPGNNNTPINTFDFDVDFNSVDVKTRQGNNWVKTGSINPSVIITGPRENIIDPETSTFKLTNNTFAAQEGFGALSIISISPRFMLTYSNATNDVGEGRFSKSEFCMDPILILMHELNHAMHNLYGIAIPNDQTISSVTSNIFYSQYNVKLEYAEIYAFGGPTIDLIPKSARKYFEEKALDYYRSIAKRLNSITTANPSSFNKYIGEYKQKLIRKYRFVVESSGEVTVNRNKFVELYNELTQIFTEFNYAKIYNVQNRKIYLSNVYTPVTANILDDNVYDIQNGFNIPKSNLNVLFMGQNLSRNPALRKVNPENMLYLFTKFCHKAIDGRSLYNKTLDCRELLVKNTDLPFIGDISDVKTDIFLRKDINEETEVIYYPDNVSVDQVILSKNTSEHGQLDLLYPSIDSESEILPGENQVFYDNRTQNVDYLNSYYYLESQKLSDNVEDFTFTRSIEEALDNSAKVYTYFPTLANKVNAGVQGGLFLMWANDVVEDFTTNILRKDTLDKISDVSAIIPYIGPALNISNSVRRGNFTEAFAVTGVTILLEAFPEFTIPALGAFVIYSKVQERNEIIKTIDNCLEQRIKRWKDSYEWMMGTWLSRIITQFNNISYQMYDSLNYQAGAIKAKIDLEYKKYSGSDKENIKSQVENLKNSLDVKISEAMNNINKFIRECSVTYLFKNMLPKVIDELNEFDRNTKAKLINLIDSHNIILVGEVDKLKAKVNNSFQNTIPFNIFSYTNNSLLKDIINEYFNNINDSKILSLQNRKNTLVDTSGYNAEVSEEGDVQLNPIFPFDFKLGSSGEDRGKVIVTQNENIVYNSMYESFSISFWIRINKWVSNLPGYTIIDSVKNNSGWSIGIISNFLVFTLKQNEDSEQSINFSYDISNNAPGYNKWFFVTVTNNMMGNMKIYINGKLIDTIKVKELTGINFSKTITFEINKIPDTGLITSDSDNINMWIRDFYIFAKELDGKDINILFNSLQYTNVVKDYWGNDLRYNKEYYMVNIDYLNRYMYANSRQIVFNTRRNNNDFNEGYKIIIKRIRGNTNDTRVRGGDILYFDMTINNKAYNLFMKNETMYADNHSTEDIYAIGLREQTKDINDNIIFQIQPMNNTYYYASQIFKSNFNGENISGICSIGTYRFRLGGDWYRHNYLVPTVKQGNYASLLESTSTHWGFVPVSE
# Assay Comment: yeast scFv FACS
Form field: Kd (one value per entry).

Field: example entries. Status: answers known.
* 4C2 scFv (scFv, V domains shown, human) VH: EVQLVQSGGNLVQPGGSLRLSCTASGFIFSNHWMQWVRQIPGKGLMWVSRINDSGRSTSYAGFVKGRFTMSRDNAKNTLFLQMNSLTAEDTGVYYCVRETWEVLGHLGYEVLDHWGLGTLVTVSS VL: DIVMTQSPSSLSASVGDRVTITCRASQGISSYLAWYQQKPGKAPKLLIYAASTLQSGVPSRFSGSGSGTEFTLTISSLQPEDFATYYCQQLNSYPRTFGQGTKVDIK | 0.19 nM
* 4C10 scFv (scFv, V domains shown, human) VH: QVQLVESGGGAVQPGESLRLSCAASGFTFSGFDMHWVRQSPGRGLEWVARISHDGSMADYADSLRGRFTISRDNPKNTLYLHMNSLRVEDTALYYCAKDRWRSGSYPAFEKWGQGTMVTVSS VL: QSVPTQPASVSGSPGQSITISCTGTSSDVGAYNYVSWYQQHPGKAPKLMIYDVSDRPSGVSNRFSGSKSGNTASLTISGLQAEDEADYYCSSYTSSSTYVFGTGTKLTVL | 0.39 nM

Okay, next one:
Data point: 4C8 scFv (scFv, V domains shown, human) VH: QVQLVESGGGLVQPGRSLRLSCAASGLTLSNYWMNWVRQAPGKGLEWVANIHQDGVEKYYVDSVKGRFTISRDNAKNSLYLQMSSLRAEDTAVYYCARGGKYSNSSAMYQWGQGTLVTVSS VL: DIVMTQSPSSLAASVGDRVTITCRASQSISGYLNWYQQKPGKAPNLLIYAASSLQSGVPSRFSGSGSGTDFTLTISSLQPDDFASYYCQQSYDIPRTFGQGTKVEIK ; Kd = 51.1 nM
